Test Method Notes: Pharmacokinetics of compound I-1 in the dog by intravenous, oral gavage and oral capsule routes
Format: in vivo, beagle dogs
Experimental Context: male, beagle, dog, plasma, po, 10 mg/kg, Oral Gavage 0.5% Methylcellulose 10 mg/kg; Average
Property Name: AUC(0-t) (ng·h/mL)
Form entry: value (ng·h/mL) — number only.

Query string: What AUC(0-t) value was documented for this compound, CC(C)(O)c1nc2ccccc2cc1N [I-1] ?
Result string: 9360

---

Test Method Notes: Pharmacokinetics of compound I-1 in the dog by intravenous, oral gavage and oral capsule routes
Type: in vivo, beagle dogs
Experimental Context: male, beagle, dog, plasma, po, 10 mg/kg, Group 2: PO Gavage 10 mg/kg; 0.25 h; Subject 3; read-out: Concentration at time point
Property Name: concentration at 0.25 h (ng/mL)
Form entry: value (ng/mL) — number only.

Query string: What concentration at 0.25 h value was documented for this compound, CC(C)(O)c1nc2ccccc2cc1N [I-1] ?
Result string: 1310

---

Test Method Notes: Phase 1 clinical trial, multiple ascending dose (MAD) pharmacokinetics
Type: in vivo, human
Experimental Context: human, in vivo, po, 350 mg, oral 350 mg BID; Day 1; read-out: Mean t1/2 (converted)
Property Name: half-life

Query string: What half-life value was documented for this compound, "CC(C)(O)c1nc2ccccc2cc1N" ?
Result string: ~340 min

---

Test Method Notes: Pharmacokinetics of compound I-1 in the dog by intravenous, oral gavage and oral capsule routes
Format: in vivo, beagle dogs
Experimental Context: male, beagle, dog, plasma, oral, 7 mg/kg, Group 3: PO Capsule 7 mg/kg; 4 h; Average; read-out: Concentration at time point
Description: A pharmacokinetic study was conducted to compare the bioavailability of capsule and suspension oral formulations vs. an intravenous formulations. The standard curve was prepared from 1 to 2,000 ng/mL. QC samples were prepared at 30, 30, and 750 ng/mL. […] The resulting supernatants were analyzed by LCMS. […] The I-1 100 mg capsules are manufactured as a non-sterile spray dried, granulated powder blend. […] The quantitative composition of the I-1 100 mg capsule is presented above in Table B. […]
Property Name: concentration at 4 h (ng/mL)
Form entry: value (ng/mL) — number only.

Query string: What concentration at 4 h value was documented for this compound, "CC(C)(O)c1nc2ccccc2cc1N" ?
Result string: 985

---

Test Method Notes: Pharmacokinetics of compound I-1 in the dog by intravenous, oral gavage and oral capsule routes
Assay type: in vivo, beagle dogs
Experimental Context: male, beagle, dog, plasma, oral, 100 mg, Group 3: PO Capsule 7 mg/kg; 0.25 h; Average; read-out: Concentration at time point
Property Name: concentration at 0.25 h
Reply with the number, then its unit.

Query string: What concentration at 0.25 h value was documented for this compound, "CC(C)(O)c1nc2ccccc2cc1N" ?
Result string: 23.8 ng/mL

---

Test Method Notes: Phase 1 clinical trial, single ascending dose (SAD) pharmacokinetics
Format: in vivo, human
Experimental Context: human, in vivo, po, 50 mg, healthy volunteers; oral single dose 50 mg
Property Name: Cmax

Query string: What Cmax value was documented for this molecule, "CC(C)(O)c1nc2ccccc2cc1N" ?
Result string: ~56.7 ng/mL

---

Test Method Notes: Pharmacokinetics of compound I-1 in the dog by intravenous, oral gavage and oral capsule routes
Format: in vivo, beagle dogs
Experimental Context: male, beagle, dog, plasma, iv, 3 mg/kg, Group 1: IV 3 mg/kg; 0.25 h; Subject 2; read-out: Concentration at time point
Property Name: concentration at 0.25 h (ng/mL)
Form entry: value (ng/mL) — number only.

Query string: What concentration at 0.25 h value was documented for this compound, CC(C)(O)c1nc2ccccc2cc1N [I-1] ?
Result string: 2300

FYI, the data here is from patent US12064516B2.
